Measurement Description: Phase 2 metabolic stability, mouse liver S9
Assay type: in vitro ADME

Molecule	CLint scaled at 1 µM [mL/min/kg]
CCCCCCCCC/C(=C\C1=C(C)C(=O)C(OC)=C(OC)C1=O)C(=O)O [APX3330, reference compound]	21.6

###

Measurement Description: Thermodynamic solubility
Format: physicochemical
Setup Conditions: FaSSIF, 37 °C, thermodynamic from solid
Property Measured: solubility thermodynamic at 24 h (µg/mL)

Compound	Numeric Result
CCC/C(=C\C1=C(O)C(=O)c2ccccc2C1=O)C(=O)N(CC)CC [APX2053]	1010
CCCCCCCCC/C(=C\C1=C(C)C(=O)C(OC)=C(OC)C1=O)C(=O)O [APX3330, reference compound]	671
CCC/C(=C\C1=C(OC)C(=O)c2ccccc2C1=O)C(=O)N(CC)CC [APX2009]	198

###

Measurement Description: Plasma stability, human plasma
Type: in vitro ADME

Molecule	half-life at 1 µM [h]
CCC/C(=C\C1=C(OC)C(=O)c2ccccc2C1=O)C(=O)N(CC)CC	2.72
CCC/C(=C\C1=C(O)C(=O)c2ccccc2C1=O)C(=O)N(CC)CC	0.417
CCCCCCCCC/C(=C\C1=C(C)C(=O)C(OC)=C(OC)C1=O)C(=O)O [APX3330, reference compound]	8.48

###

Measurement Description: In vivo PK in mouse
Setup Conditions: plasma, po, 25 mg/kg

Compound	Quantity Unit	AUC(0-inf)
CCC/C(=C\C1=C(OC)C(=O)c2ccccc2C1=O)C(=O)N(CC)CC	ng·h/mL	113
CCCCCCCCC/C(=C\C1=C(C)C(=O)C(OC)=C(OC)C1=O)C(=O)O [APX3330, reference compound]	ng·h/mL	77900
CCC/C(=C\C1=C(O)C(=O)c2ccccc2C1=O)C(=O)N(CC)CC	ng·h/mL	25400

###

Measurement Description: Phase 1 metabolic stability, mouse liver S9
Assay type: in vitro ADME
Setup Conditions: liver S9, pH 7.4
The following compounds are listed with their measured CLint scaled at 1 µM values.
Property Measured: CLint scaled at 1 µM (mL/min/kg)

Compound	Property Measured	Numeric Result
CCC/C(=C\C1=C(OC)C(=O)c2ccccc2C1=O)C(=O)N(CC)CC [APX2009]	CLint scaled at 1 µM	7.9
CCCCCCCCC/C(=C\C1=C(C)C(=O)C(OC)=C(OC)C1=O)C(=O)O [APX3330, reference compound]	CLint scaled at 1 µM	14.2
CCC/C(=C\C1=C(O)C(=O)c2ccccc2C1=O)C(=O)N(CC)CC [APX2053]	CLint scaled at 1 µM	34.6

###

Measurement Description: CaCO2 bidirectional permeability
Assay type: in vitro ADME
Setup Conditions: human, Caco-2

Compound	Papp A→B
CCC/C(=C\C1=C(O)C(=O)c2ccccc2C1=O)C(=O)N(CC)CC	39.7 ×10⁻⁶ cm/s
CCCCCCCCC/C(=C\C1=C(C)C(=O)C(OC)=C(OC)C1=O)C(=O)O [APX3330, reference compound]	5.2 ×10⁻⁶ cm/s
CCC/C(=C\C1=C(OC)C(=O)c2ccccc2C1=O)C(=O)N(CC)CC	33.7 ×10⁻⁶ cm/s

###

System: HIF1α
Measurement Description: HIF1α-driven luciferase reporter assay, NF90-8 cells, 1% hypoxia
Type: cell-based
Setup Conditions: Homo sapiens, 24 h, read-out: HIF1α Luciferase 24 hr EC50±SE (μM)
Property Measured: EC50 (µM)

Compound	Property Measured	Numeric Result
CCCCCCCCC/C(=C\C1=C(C)C(=O)C(OC)=C(OC)C1=O)C(=O)O [APX3330, reference compound]	EC50	55.1
CCC/C(=C\C1=C(OC)C(=O)c2ccccc2C1=O)C(=O)N(CC)CC [APX2009]	EC50	14.3
